Listing: % Inhibition of JEG-3 cell invasion, 5 µg/ml (first test) of selected binders
- TEST TARGET: T1, MMP-26 (human)
- T1 sequence: ASDF
- METHOD: cell-based or functional assay
Please give a number only; it is taken to be in %.

Assign % Inhibition of JEG-3 cell invasion, 5 µg/ml (first test) to the following record: D07 (antibody, human IgG4, V domains shown) VH: EVQLLESGGGLVQPGGSLRLSCAASGFTFSEYNMFWVRQAPGKGLEWVSYIYSSGGSTDYADSVKGRFTISRDNSKNTLYLQMNSLRAEDTAVYYCARVGIAARPFDPWGQGTLVTVSS VL: QSELTQPASVSGSPGQSITISCTGTNSDIGGYNYVSWYQQHPGKVPKLLIFEVNNRPSGVSSRFSGSKSGDTASLTISGLQPEDEAVYYCGSFTVSVTYVFGTGTKVTVLG
21

Assign % Inhibition of JEG-3 cell invasion, 5 µg/ml (first test) to the following record: C04 (antibody, human IgG4, V domains shown) VH: EVQLLESGGGLVQPGGSLRLSCAASGFTFSMYFMVWVRQAPGKGLEWVSWIGSSGGETPYADSVKGRFTISRDNSKNTLYLQMNSLRAEDTAVYYCARGYSSGWYVMGDYWGQGTLVTVSS VL: QSALTQPPSASGTPGQRVTISCSGTSSNIGSHYVFWYQQLPGTAPKLLIHRNDERPSGVPDRFSGSKSGTSASLAISGLQSEDEADYYCATWDDNLNGPVFGGGTKLT
35

From here, focus on the item given below.
Assign % Inhibition of JEG-3 cell invasion, 5 µg/ml (first test) to the following record: H6-orig (antibody, human IgG4, V domains shown) VH: EVQLLESGGGLVQPGGSLRLSCAASGFTFSQYWMNWVRQAPGKGLEWVSGIGPSGGITYYADSVKGRFTISRDNSKNTLYLQMNSLRAEDTAVYYCARGEEDGYNSDYWGQGTLVTVSS VL: QSELTQPPSASGSPGQSVTISCTGTSSDVGAYNYVSWYQQHPGKAPKLIIYEVNKRPSGVPDRFSASKSGNTASLTVSGLQAEDEADYYCNSYAGSNSLIFGGGTKLTVLG
24
